Assay: Acute toxicity, intraperitoneal
Conditions: mouse, in vivo, ip; mice, i.p., determined 48 hours later; read-out: DL50 dose which kills 50% of mice
Counter-ions that a name gives are not always drawn.
Observation Type: LD50 at 48 h

[
  {
    "Compound": "CNCC1C=Cc2cc(O)ccc2CC1.Cl (centres unmarked) [Example 6]",
    "Result Value": "75 mg/kg"
  },
  {
    "Compound": "CNCC1C=Cc2cc(OC)ccc2CC1.Cl (centres unmarked) [Example 5]",
    "Result Value": "100 mg/kg"
  },
  {
    "Compound": "CN(C)CC1C=Cc2cc([N+](=O)[O-])ccc2CC1 (centres unmarked) [1 - 2]",
    "Result Value": "150 mg/kg"
  },
  {
    "Compound": "CNCC1C=Cc2cc([N+](=O)[O-])ccc2CC1 (centres unmarked) [Example 3, hydrochloride]",
    "Result Value": "100 mg/kg"
  },
  {
    "Compound": "CNCC1C=Cc2cc(N)ccc2CC1 (centres unmarked) [Example 4]",
    "Result Value": "100 mg/kg"
  }
]
